- Tested on: LN229 human glioblastoma cell line
- test method notes: Cell viability (MTT assay), LN229
- Type: cell-based
- condition context: Homo sapiens, LN-229; LN229; read-out: IC50 concentration

{"compound": "CC(C)(Oc1ccc(C(=O)c2ccc(Cl)cc2)cc1)C(=O)Nc1ccccc1O [HR49]", "IC50": "< 10 µM"}

====

A collection of molecules and their measured CV = Cell viability (% of control)
- Test system: LN229 human glioblastoma cell line
- test method notes: Cell viability (MTT assay), LN229
- Type: cell-based
- condition context: 1 μM, MTT

{"molecule": "CC(C)(Oc1ccc(C(=O)c2ccc(Cl)cc2)cc1)C(=O)N1CCC([NH+]2CCOCC2)CC1.[Cl-] [H38]", "target or test system": "LN229 human glioblastoma cell line", "CV = Cell viability (% of control)": "97.97±11.41 % of control"}
{"molecule": "CN1CCN(C(=O)C(C)(C)Oc2ccc(C(=O)c3ccc(Cl)cc3)cc2)CC1.Cl [H35]", "target or test system": "LN229 human glioblastoma cell line", "CV = Cell viability (% of control)": "93.64±2.08 % of control"}
{"molecule": "CC(C)(Oc1ccc(C(=O)c2ccc(Cl)cc2)cc1)C(=O)N1CCC(N2CCOCC2)CC1 [H37]", "target or test system": "LN229 human glioblastoma cell line", "CV = Cell viability (% of control)": "109.20±5.73 % of control"}
{"molecule": "CC(C)(Oc1ccc(C(=O)c2ccc(Cl)cc2)cc1)C(=O)N(CCO)CCO [H46]", "target or test system": "LN229 human glioblastoma cell line", "CV = Cell viability (% of control)": "103.00±2.98 % of control"}
{"molecule": "CC(C)(C)OC(=O)NCCCCNC(=O)C(C)(C)Oc1ccc(C(=O)c2ccc(Cl)cc2)cc1 [H28]", "target or test system": "LN229 human glioblastoma cell line", "CV = Cell viability (% of control)": "92.75±3.59 % of control"}
{"molecule": "CN(CCO)C(=O)C(C)(C)Oc1ccc(C(=O)c2ccc(Cl)cc2)cc1 [PP1]", "target or test system": "LN229 human glioblastoma cell line", "CV = Cell viability (% of control)": "98.36±1.61 % of control"}
